Biological target: PvdQ acylase (Pseudomonas aeruginosa)
Assay: P. aeruginosa PvdQ acylase inhibitors, dose response, biochemical, fluorescence, plate reader, dry powder, set 2 (AID 623985)
Settings: purified PvdQ, 4-MU laurate fluorescence, 60 min
// values below are reported AC50

# annotated cases, reported AC50 shown
N#Cc1cccc(C(C#N)c2ccc(Cl)cc2Cl)n1 (stereo unspecified) = 303 nM
N#CC(c1cccc(Cl)n1)c1ccc(Cl)cc1Cl (stereo unspecified) = 170 nM
COc1cccc(C(C#N)c2ccc(F)cc2)n1 (stereo unspecified) = 124 nM

Please report the measured AC50 for Cc1ccc(C(C#N)c2ccc(Cl)cc2)nc1C#N (stereo unspecified) tested on PvdQ acylase (Pseudomonas aeruginosa).
69.7 nM

Please report the measured AC50 for N#CC(c1ccc(C(F)(F)F)c(Cl)n1)c1ccccc1OC(F)(F)F (stereo unspecified) tested on PvdQ acylase (Pseudomonas aeruginosa).
597 nM

Please report the measured AC50 for CC(C#N)(c1ccc(Cl)cc1)c1ccc(C(F)(F)F)cn1 (stereo unspecified) tested on PvdQ acylase (Pseudomonas aeruginosa).
1230 nM
